target: Syk kinase (Homo sapiens); construct: purchased; test: Syk kinase inhibition, Caliper LabChip off-chip mobility-shift kinase assay; type: biochemical; details: Caliper LabChip assay; read-out: Syk Enzyme IC50
READOUT TYPE: pIC50
Keep in mind that pIC50 stands for -log10 of concentration in molar terms.

In: Look up pIC50 for this compound: COCCNC(=O)c1ccc(Nc2nc(Nc3cc(C)ccn3)cc3ccn(C)c(=O)c23)cc1 [compound 652]
Out: 6.18

In: Please report the recorded pIC50 for [2H]C([2H])([2H])n1ccc2cc(Nc3cnccn3)nc(N[C@H]3CC[C@@H](CO)C3)c2c1=O [compound 986] .
Out: 8.05

In: Reported pIC50, compound CCn1ccc2cc(Nc3cnccn3)nc(N[C@H](CO)C(C)(C)C)c2c1=O [compound 807] : ____
Out: 6.67

In: Find the recorded pIC50 belonging to CCOC(=O)c1cnn(-c2cc(Nc3cc4ccn(CCO)c(=O)c4c(NC(C)(C)C)n3)ncn2)c1 [compound 889] and report it.
Out: 5.66
